Values compiled from the supplement of paper PMC4862054.

# System: SK-BR-3
# assay-overview: normalised response (% of control), CellTiter-Glo; higher = more viable cells (100 = DMSO, 0 = benzethonium chloride kill control)
# experimental-context: incubation time: 72 h
value-kind: normalised response (%)

>>> df
                                    molecule   system           value_kind  reported
 0  COc1cc2c(NC3CCN(C(C)C)CC3)nc(N3CCC(F)(F)CC3)nc2cc1OCCCN1CCCC1 [UNC0642] (1 nM)  SK-BR-3  normalised response      93.1
 1  c1ccc2c(CCNc3ccc(Nc4ccncc4)cc3)c[nH]c2c1 [Serdemetan] (1000 nM)  SK-BR-3  normalised response      79.6
 2  COc1cc(OC2CCN(C)CC2)ccc1Nc1ncc2c(n1)n(C1CCCC1)c(=O)n2C [AZ 3146] (1 nM)  SK-BR-3  normalised response      98.3
 3  CNC(=O)c1ccc(N2C(=S)N(c3ccc(C#N)c(C(F)(F)F)c3)C(=O)C23CCC3)cc1F [RD162] (10 nM)  SK-BR-3  normalised response      94.4
 4  COc1cc2/c(=N/c3ccc(Br)cc3F)nc[nH]c2cc1OCC1CCN(C)CC1 [Vandetanib] (0.1 nM)  SK-BR-3  normalised response        78
 5  O=C(/C=C/c1cccc(S(=O)(=O)Nc2ccccc2)c1)NO [Belinostat] (10 nM)  SK-BR-3  normalised response      68.9
 6  COc1cc2/c(=N/c3ccc(Br)cc3F)nc[nH]c2cc1OCC1CCN(C)CC1 [Vandetanib] (100 nM)  SK-BR-3  normalised response      77.7
 7  COc1cc(O)c2c(c1)/C=C/C[C@H](O)[C@H](O)C(=O)/C=C\C[C@H](C)OC2=O [(5Z)-7-Oxozeaenol] (10 nM)  SK-BR-3  normalised response       107
 8  O=C(Nc1ccncc1)C(=O)c1cn(Cc2ccc(Cl)cc2)c2ccccc12 [Indibulin] (1000 nM)  SK-BR-3  normalised response      33.2
 9  CN(C)c1nc(N(C)C)nc(N(C)C)n1 [Altretamine] (1 nM)  SK-BR-3  normalised response       108
10  CCn1c(-c2nonc2N)nc2cnc(Oc3cccc(NC(=O)c4ccc(OCCN5CCOCC5)cc4)c3)cc21 (1000 nM)  SK-BR-3  normalised response      81.8
11  COc1cc(O)c2c(c1)/C=C/C[C@H](O)[C@H](O)C(=O)/C=C\C[C@H](C)OC2=O [(5Z)-7-Oxozeaenol] (1000 nM)  SK-BR-3  normalised response       115
12  S=P(N1CC1)(N1CC1)N1CC1 [Thio-TEPA] (5 nM)  SK-BR-3  normalised response       105
13  CCn1c(-c2nonc2N)nc2cnc(Oc3cccc(NC(=O)c4ccc(OCCN5CCOCC5)cc4)c3)cc21 (1 nM)  SK-BR-3  normalised response       102
14  Cc1cc(Nc2cc(CN3CCOCC3)c3nc(C)c(Cc4ccc(Cl)cc4F)n3n2)n[nH]1 [Gandotinib] (1 nM)  SK-BR-3  normalised response       110
15  O=C(Nc1ccncc1)C(=O)c1cn(Cc2ccc(Cl)cc2)c2ccccc12 [Indibulin] (1 nM)  SK-BR-3  normalised response       110
